Data provenance is patent US20260132197A1.

- SYSTEM_NAME: T1, wild type human CD47 (Acro Biosystems, cat. no. CD7-H5227) (human, UniProt Q08722 19-139)
- T1 construct: Bought protein used as SPR analyte; also called Human CD47 wt; wild-type CD47
- ASSAY_TEXT: SPR, IgG captured, CD47 in flow; exp 3;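 note: biacore T200 SPR with antibodies taken from supernatants of transfected HEK293 cells, C33G mutein avoiding IgV homodimers for monovalent affinity, Kd derived from association and dissociation rate constants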
READOUT_TYPE: kon (M⁻¹ s⁻¹)
Numbers only; they are read as M⁻¹ s⁻¹.

Asked: Look up and state reported kon for 108VH5.M17 / 108VL1.M5 (antibody, human IgG4 S228P, kappa, V domains shown, Full-length IgG4 (S228P), kappa; also called VH5.M17 VL1.M5) VH: EVQLVQSGAEVKKPGASVKVSCKASGYTFTHHWMHWVRQAPGQGLEWMGMIDASEGETRYAQKFQGRVTMTRDTSTSTVYMELSSLRSEDTAVYYCARLGRYYFDYWGQGTLVTVSS VL: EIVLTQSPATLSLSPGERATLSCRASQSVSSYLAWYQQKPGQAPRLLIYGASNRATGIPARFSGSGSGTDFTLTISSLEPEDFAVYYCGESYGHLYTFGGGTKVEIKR
Given back: 460000
